PROTOCOL TEXT: Free-radical scavenging: inhibition of autoxidation of 1-epinephrine (Misra and Fridovich)
Type: biochemical
ASSAY CONTEXT: 1-epinephrine 1 x 10⁻⁴M, EDTA 1 x 10⁻⁴M, 30°C, absorbance at 480; read-out: 50% inhibition of the autoxidation rate (ID₅₀)
REPORTED ENDPOINT: pIC50
FYI, pIC50 means -log10 of a concentration in mol per litre.

Cc1c(C)c2c(c(C)c1O)CCC(C)(CC[N+](C)(C)C)O2 (centres unmarked) :: 3.86

Short answer for Cc1c(C)c2c(c(C)c1O)CCC(C)(C(=O)O)O2 (centres unmarked) : pIC50 was 3.98

Data credit: patent EP0369874A2
